Target: Histone deacetylase 7 (Homo sapiens, UniProt Q8WUI4)
Sequence (Q8WUI4 whole entry): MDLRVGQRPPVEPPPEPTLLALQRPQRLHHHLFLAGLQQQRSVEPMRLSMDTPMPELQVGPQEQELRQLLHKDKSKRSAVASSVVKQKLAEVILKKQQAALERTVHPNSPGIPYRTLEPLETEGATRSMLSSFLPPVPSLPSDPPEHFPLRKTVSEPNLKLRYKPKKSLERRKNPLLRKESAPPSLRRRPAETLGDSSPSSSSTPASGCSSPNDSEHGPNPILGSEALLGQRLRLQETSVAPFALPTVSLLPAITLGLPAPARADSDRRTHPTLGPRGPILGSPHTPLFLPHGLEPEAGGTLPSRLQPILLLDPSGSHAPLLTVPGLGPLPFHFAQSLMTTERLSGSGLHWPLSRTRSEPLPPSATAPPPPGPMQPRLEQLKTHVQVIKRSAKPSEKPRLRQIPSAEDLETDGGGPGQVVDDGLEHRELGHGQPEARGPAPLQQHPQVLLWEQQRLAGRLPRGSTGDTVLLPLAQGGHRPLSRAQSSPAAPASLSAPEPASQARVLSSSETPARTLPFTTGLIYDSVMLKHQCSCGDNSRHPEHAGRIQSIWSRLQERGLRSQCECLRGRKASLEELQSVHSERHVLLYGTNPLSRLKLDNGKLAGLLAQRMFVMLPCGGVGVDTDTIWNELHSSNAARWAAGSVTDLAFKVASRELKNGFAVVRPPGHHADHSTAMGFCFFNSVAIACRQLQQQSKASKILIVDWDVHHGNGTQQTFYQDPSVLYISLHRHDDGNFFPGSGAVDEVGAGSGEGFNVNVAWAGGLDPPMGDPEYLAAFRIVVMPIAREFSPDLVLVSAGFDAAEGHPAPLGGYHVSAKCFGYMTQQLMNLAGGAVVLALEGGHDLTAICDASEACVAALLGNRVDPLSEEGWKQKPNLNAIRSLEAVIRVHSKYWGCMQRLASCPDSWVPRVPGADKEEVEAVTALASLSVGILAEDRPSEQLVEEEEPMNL
Parameter: IC50

IC50 reported for this molecule CC(C)N(C(=O)c1cc(C(F)(F)F)cc(C(F)(F)F)c1)c1ccc(C(=O)NO)cc1 : > 10 µM

====

molecular target: Histone deacetylase 5 (Homo sapiens)
Sequence (Q9UQL6 whole entry): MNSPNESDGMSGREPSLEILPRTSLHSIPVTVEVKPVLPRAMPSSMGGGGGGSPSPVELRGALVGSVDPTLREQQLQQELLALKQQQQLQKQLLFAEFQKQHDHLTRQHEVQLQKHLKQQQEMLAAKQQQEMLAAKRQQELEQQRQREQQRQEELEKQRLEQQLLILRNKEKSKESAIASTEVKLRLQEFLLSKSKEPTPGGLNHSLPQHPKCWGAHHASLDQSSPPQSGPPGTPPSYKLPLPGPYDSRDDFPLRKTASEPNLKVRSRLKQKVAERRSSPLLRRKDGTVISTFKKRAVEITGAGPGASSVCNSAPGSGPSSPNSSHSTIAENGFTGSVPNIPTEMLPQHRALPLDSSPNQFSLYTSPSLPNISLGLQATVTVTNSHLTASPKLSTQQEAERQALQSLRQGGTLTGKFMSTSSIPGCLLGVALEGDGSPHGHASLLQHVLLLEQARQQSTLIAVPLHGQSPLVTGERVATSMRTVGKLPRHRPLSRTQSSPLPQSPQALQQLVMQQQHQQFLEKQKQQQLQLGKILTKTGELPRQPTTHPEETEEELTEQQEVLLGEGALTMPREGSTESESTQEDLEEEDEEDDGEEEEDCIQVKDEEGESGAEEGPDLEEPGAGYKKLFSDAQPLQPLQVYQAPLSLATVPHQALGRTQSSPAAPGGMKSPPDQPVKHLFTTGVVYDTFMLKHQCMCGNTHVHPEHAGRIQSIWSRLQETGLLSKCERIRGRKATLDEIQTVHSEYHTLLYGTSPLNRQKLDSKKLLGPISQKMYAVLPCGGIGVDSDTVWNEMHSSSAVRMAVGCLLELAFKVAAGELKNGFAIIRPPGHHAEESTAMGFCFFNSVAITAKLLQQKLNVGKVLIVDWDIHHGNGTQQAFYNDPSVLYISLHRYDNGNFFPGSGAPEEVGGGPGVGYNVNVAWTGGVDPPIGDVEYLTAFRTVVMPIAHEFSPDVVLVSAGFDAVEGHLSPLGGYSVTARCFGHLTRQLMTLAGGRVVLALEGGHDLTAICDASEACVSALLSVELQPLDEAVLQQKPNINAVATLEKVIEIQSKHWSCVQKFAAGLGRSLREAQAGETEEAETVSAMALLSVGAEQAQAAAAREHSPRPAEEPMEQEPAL
pIC50: −log10 of the molar value.
Parameter: pIC50

pIC50 value, target or system Histone deacetylase 5 (Homo sapiens), for CC(C)N(C(=O)c1cc(C(F)(F)F)cc(C(F)(F)F)c1)c1ccc(C(=O)NO)cc1 : < 5.00

====

tested on: BE(2)-C; assay: Inhibition of colony formation in human BE(2)-C cells
Parameter: IC50 (nM)
Quick note: give the figure in nM, leave out the unit.

IC50 reported for this compound CC(C)(C)c1cccc(C(=O)N(CC2CC2)c2ccc(C(=O)NO)cc2)c1 : 2100

====

assay: Half life in CD1 mouse at 100 mg/kg, ip measured after 5 mins to 12 hrs by LC-MS/MS analysis; type: ADME, organism-based; details: in vivo
Parameter: half-life (h)
Quick note: give the figure in h, leave out the unit.

half-life reported for this compound COc1ccc(Cn2ccc3ccc(C(=O)NO)cc32)cc1 : 3.3

====

test: AUClast in CD1 mouse at 100 mg/kg, ip measured after 5 mins to 12 hrs by LC-MS/MS analysis; format: ADME, organism-based; design: time upper 12 hr, time lower 0.083 hr, dose 100 mg/kg, route intraperitoneal; details: in vivo
Parameter: AUC(0-t) (ng·h/mL)
Quick note: give the figure in ng·h/mL, leave out the unit.

AUC(0-t) reported for this compound COc1ccc(Cn2ccc3ccc(C(=O)NO)cc32)cc1 : 6950

====

experiment: MRT in CD1 mouse at 100 mg/kg, ip measured after 5 mins to 12 hrs by LC-MS/MS analysis; type: ADME, organism-based; details: in vivo
Collected MRT values appear next to each entry.
Quick note: give the figure in h, leave out the unit.

{"Structure As Smiles": "COc1ccc(Cn2ccc3ccc(C(=O)NO)cc32)cc1", "Unit Name": "h", "MRT": 0.45}

MRT reported for this compound CC(C)N(C(=O)c1cccc(OC(F)(F)F)c1)c1ccc(C(=O)NO)cc1 : 3

MRT reported for this compound CC(C)(C)c1cccc(C(=O)N(CC2CC2)c2ccc(C(=O)NO)cc2)c1 : 2.77
